Value source: ChEMBL document CHEMBL1138178

- Test system: Plasmodium falciparum
- MEASUREMENT_PROTOCOL: Antimalarial activity against Plasmodium falciparum W2 up to 20 uM
- Type: functional, organism-based
PARAMETER: IC50

CCOC(=O)C1CCN(S(=O)(=O)c2ccc(CNC(=O)c3ccccc3)s2)CC1 ... Not Active
O=S(=O)(NCCSCc1ccco1)c1cc(S(=O)(=O)c2ccccc2)cs1 ... Not Active
COc1ccc(-c2ccnc(SCC(=O)NCCSCc3ccco3)n2)cc1 ... Not Active
COC(=O)c1sccc1NC(=O)CSCc1ccc(Cl)cc1 ... Not Active

----------
- Tested on: Leishmania donovani
- MEASUREMENT_PROTOCOL: Antileishmanial activity against Leishmania donovani promastigotes
- Type: functional, organism-based
- CONDITION_INFO: Leishmania donovani
PARAMETER: IC90 (µM)

# example entries with known answers
c1ccc(-c2nc(NCCCn3ccnc3)cc(-c3cccnc3)n2)cc1 ... 56.1
C[C@@H]1[C@H](O)[C@@H](C)/C=C/C=C/C=C/C=C/C=C/C=C/C=C/[C@H](O[C@@H]2O[C@H](C)[C@@H](O)[C@H](N)[C@@H]2O)C[C@@H]2O[C@](O)(C[C@@H](O)C[C@@H](O)[C@H](O)CC[C@@H](O)C[C@@H](O)CC(=O)O[C@H]1C)C[C@H](O)[C@H]2C(=O)O [AMPHOTERICIN B] ... 0.3

(I) Brc1cncc(-c2cc(NCCCn3ccnc3)nc(-c3ccccc3)n2)c1
(II) O=S(=O)(c1ccc2c(c1)C(=NO)c1cc(S(=O)(=O)N3CCOCC3)ccc1-2)N1CCOCC1
When their IC90 values are compared, which is larger, I or II ? Which one? Tell me its label. II
(II: 81 µM, I: 15.4 µM)
